// reported pIC50 per item
target.entity: T1, human LIGHT (TNFSF14), full length, membrane-bound (214E allele) (human, UniProt O43557 1-240)
T1 construct: also called membrane LIGHT; human membrane LIGHT
method.description: competition with biotin-LTβR-Fc, EL4-LIGHT cells, flow cytometry
pIC50: −log10 of the molar value.

- binder: "3A07 (antibody, human IgG4, V domains shown, chimeric human IgG4 (S-to-P, L-to-E at 248), human CL; also called Parental 3A07) VH: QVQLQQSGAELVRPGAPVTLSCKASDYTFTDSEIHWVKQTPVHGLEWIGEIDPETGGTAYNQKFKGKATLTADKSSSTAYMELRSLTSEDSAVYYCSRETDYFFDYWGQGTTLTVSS VL: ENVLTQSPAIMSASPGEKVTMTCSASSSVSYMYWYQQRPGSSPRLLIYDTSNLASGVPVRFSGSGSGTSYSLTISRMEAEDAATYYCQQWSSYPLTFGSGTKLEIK"
  pIC50: 9.46
- binder: "2B11 (antibody, human IgG4, V domains shown, chimeric human IgG4 (S-to-P, L-to-E at 248), human CL; also called Parental 2B11) VH: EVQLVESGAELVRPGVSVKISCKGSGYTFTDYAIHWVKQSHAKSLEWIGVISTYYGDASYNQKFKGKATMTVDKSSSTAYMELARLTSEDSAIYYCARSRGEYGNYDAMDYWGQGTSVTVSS VL: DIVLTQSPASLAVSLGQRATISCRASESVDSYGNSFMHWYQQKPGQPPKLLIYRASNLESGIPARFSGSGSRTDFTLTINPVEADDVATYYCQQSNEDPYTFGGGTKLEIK"
  pIC50: 9.44
- binder: "2E08 (antibody, human IgG4, V domains shown, chimeric human IgG4 (S-to-P, L-to-E at 248), human CL; also called Parental 2E08) VH: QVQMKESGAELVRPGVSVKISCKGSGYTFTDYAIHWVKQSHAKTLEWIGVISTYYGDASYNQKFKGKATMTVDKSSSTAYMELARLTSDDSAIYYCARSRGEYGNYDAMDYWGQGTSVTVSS VL: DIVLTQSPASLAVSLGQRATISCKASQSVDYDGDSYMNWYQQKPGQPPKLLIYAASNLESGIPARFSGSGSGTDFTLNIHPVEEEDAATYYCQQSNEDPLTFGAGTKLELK"
  pIC50: 8.24
